target: Discoidin domain-containing receptor 2 (Homo sapiens); test: Inhibition of DDR2 (unknown origin) assessed as remaining activity at 1 uM using fluorescein-poly GAT as substrate in presence of ATP by TR-FRET assay relative to control
In plain terms, low Activity, meaning strictly below 70%, gives fulfilled, and everything else gives not fulfilled.

Answered examples (8):
> print(dat)
                                chem.smiles                               system.name   answer.label
1  COc1ccc(NC(=O)NCc2cn(CC(=O)N3CCCC3)c3ccc(OC)cc23)cc1  Discoidin domain-containing receptor 2 (Homo sapiens)  not fulfilled
2  O=C(NCc1cn(CC(=O)N2CCCC2)c2ccc(F)cc12)Nc1ccccc1Cl  Discoidin domain-containing receptor 2 (Homo sapiens)  not fulfilled
3  COc1ccc2c(c1)c(CNC(=O)Nc1ccc(C(F)(F)F)cc1)cn2CC(=O)N1CCN(C)CC1  Discoidin domain-containing receptor 2 (Homo sapiens)  not fulfilled
4  COc1ccc(NC(=O)NCc2cn(CC(=O)N3CCOCC3)c3ccc(F)cc23)cc1  Discoidin domain-containing receptor 2 (Homo sapiens)  not fulfilled
5  COc1ccc2c(c1)c(CNC(=O)Nc1ccc(F)cc1F)cn2CC(=O)N1CCCC1  Discoidin domain-containing receptor 2 (Homo sapiens)      fulfilled
6  COc1ccc(NC(=O)NCc2cn(CC(=O)N3CCOCC3)c3ccc(OC)cc23)cc1  Discoidin domain-containing receptor 2 (Homo sapiens)  not fulfilled
7  COc1ccc2c(c1)c(CNC(=O)Nc1ccccc1Cl)cn2CC(=O)N1CCCC1  Discoidin domain-containing receptor 2 (Homo sapiens)      fulfilled
8  COc1ccc2c(c1)c(CNC(=O)Nc1ccc(C)cc1)cn2CC(=O)N1CCN(C)CC1  Discoidin domain-containing receptor 2 (Homo sapiens)  not fulfilled

Exercise: Input COc1ccc2c(c1)c(CNC(=O)Nc1ccccc1Cl)cn2CC(=O)N1CCN(C)CC1 ; condition: Activity strictly below 70%. Does it hold?
Solution: fulfilled

###

target: NT-3 growth factor receptor (Homo sapiens) (UniProt Q16288); assay: Inhibition of TRK-C (unknown origin) assessed as remaining activity at 1 uM using fluorescein-poly GAT as substrate in presence of ATP by TR-FRET assay relative to control
Sequence (Q16288 32-839 limits assumed): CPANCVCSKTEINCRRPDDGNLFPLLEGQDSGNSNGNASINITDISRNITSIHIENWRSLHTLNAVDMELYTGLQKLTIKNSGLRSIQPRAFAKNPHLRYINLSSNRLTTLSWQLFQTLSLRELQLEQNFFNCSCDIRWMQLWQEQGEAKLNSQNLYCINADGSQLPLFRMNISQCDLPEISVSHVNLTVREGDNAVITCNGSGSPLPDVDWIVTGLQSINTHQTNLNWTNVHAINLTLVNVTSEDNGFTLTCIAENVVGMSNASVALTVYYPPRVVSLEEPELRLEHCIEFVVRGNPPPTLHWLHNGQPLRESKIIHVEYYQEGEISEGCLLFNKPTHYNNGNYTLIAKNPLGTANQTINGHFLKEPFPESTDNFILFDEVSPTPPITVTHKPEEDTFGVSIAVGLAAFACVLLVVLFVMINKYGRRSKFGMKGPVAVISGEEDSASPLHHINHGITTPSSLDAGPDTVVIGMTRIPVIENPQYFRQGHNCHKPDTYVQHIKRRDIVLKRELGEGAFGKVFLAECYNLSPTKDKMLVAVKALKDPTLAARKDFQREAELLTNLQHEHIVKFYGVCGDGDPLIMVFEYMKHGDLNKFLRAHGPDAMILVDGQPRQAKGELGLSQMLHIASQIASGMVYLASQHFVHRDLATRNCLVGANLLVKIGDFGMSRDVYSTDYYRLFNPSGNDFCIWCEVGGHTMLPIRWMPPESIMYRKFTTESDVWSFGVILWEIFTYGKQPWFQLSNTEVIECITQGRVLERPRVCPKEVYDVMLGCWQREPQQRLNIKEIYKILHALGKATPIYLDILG
# Lookup of reported Activity keyed by entry
Please give a number only; it is taken to be in %.

Exercise: Activity for COc1ccc2c(c1)c(CNC(=O)Nc1ccc(C(F)(F)F)cc1)cn2CC(=O)N1CCCC1 ?
Solution: 89.7

###

biological target: High affinity nerve growth factor receptor (Homo sapiens) (UniProt P04629); experiment: Inhibition of TRK-A (unknown origin) assessed as remaining activity at 1 uM using fluorescein-poly GAT as substrate in presence of ATP by TR-FRET assay relative to control
Sequence (P04629 33-796 limits assumed): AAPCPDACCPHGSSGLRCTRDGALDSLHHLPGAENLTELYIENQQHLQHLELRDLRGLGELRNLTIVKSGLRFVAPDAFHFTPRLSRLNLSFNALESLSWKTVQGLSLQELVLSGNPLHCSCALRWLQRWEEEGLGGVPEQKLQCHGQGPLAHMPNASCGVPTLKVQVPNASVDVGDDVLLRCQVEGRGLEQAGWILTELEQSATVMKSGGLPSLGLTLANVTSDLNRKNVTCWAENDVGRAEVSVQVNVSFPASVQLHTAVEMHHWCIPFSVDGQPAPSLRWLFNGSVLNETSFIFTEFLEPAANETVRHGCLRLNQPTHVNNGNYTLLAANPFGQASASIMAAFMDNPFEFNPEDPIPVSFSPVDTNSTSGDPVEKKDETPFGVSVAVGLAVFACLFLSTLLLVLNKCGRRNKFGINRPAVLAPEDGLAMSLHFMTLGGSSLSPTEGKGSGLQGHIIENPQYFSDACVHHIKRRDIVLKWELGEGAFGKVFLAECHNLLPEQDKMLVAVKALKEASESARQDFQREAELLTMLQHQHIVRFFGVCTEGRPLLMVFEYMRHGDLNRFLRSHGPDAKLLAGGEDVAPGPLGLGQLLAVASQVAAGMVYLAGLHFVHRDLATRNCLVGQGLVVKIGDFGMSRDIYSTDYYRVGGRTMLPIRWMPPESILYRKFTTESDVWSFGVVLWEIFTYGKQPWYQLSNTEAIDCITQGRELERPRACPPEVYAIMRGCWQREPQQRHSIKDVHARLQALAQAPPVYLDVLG
In plain terms, low Activity, meaning strictly below 80%, gives MET, and everything else gives NOT MET.

> print(dat)
                                chem.smiles  answer.label
1  COc1ccc2c(c1)c(CNC(=O)Nc1ccc(C(F)(F)F)cc1)cn2CC(=O)N1CCCCC1       NOT MET

Lab note: next compound to report on.
Exercise: Input COc1ccc2c(c1)c(CNC(=O)Nc1ccccc1Cl)cn2CC(=O)N1CCCCC1 ; condition: Activity strictly below 80%. Does it hold?
Solution: MET

###

# Lookup of reported Activity keyed by entry
molecular target: High affinity nerve growth factor receptor (Homo sapiens) (UniProt P04629); assay: Inhibition of TRK-A (unknown origin) assessed as remaining activity at 1 uM using fluorescein-poly GAT as substrate in presence of ATP by TR-FRET assay relative to control
Be sure to follow the number with its unit.

Example results:
> print(dat)
                                chem.smiles  test.value
1  COc1ccc2c(c1)c(CNC(=O)Nc1ccc(C)cc1)cn2CC(=O)N1CCCC1       75.2%
2  COc1ccc2c(c1)c(CNC(=O)Nc1ccc(C(F)(F)F)cc1)cn2CC(=O)N1CCN(C)CC1         96%
3  COc1ccc(NC(=O)NCc2cn(CC(=O)N3CCCC3)c3ccc(F)cc23)cc1       71.6%

Attention now turns to another entry.
Exercise: Identify the measured Activity of COc1ccc2c(c1)c(CNC(=O)Nc1ccc(C(F)(F)F)cc1)cn2CC(=O)N1CCCC1 for High affinity nerve growth factor receptor (Homo sapiens) (UniProt P04629).
Solution: 90.4%

###

test system: NCI-H1975; assay: Antiproliferative activity against human NCI-H1975 cells incubated for 72 hrs by MTT assay; conditions: NCI-H1975, 72 h
endpoint: IC50 (nM)
Please give a number only; it is taken to be in nM.

Example results:
> print(dat)
                                   compound  value.units  test.value
1  COc1ccc2c(c1)c(CNC(=O)Nc1ccc(F)cc1F)cn2CC(=O)N1CCCC1           nM        3720
2  O=C(NCc1cn(CC(=O)N2CCCC2)c2ccc(F)cc12)Nc1ccc(F)cc1F           nM        5340
3  O=C(NCc1cn(CC(=O)N2CCCCC2)c2ccc(F)cc12)Nc1ccc(F)cc1F           nM        3860
4  O=C(NCc1cn(CC(=O)N2CCOCC2)c2ccc(F)cc12)Nc1ccc(F)cc1F           nM        1980
5  Cc1nc(Nc2ncc(C(=O)Nc3c(C)cccc3Cl)s2)cc(N2CCN(CCO)CC2)n1 [DASATINIB ANHYDROUS]           nM        1260

Attention now turns to another entry.
Exercise: IC50 for CN1CCN(C(=O)Cn2cc(CNC(=O)Nc3ccc(F)cc3F)c3cc(F)ccc32)CC1 ?
Solution: 1870

###

molecular target: NT-3 growth factor receptor (Homo sapiens); assay: Inhibition of TRK-C (unknown origin) assessed as remaining activity at 1 uM using fluorescein-poly GAT as substrate in presence of ATP by TR-FRET assay relative to control
endpoint: Activity (%)
Please give a number only; it is taken to be in %.

> print(dat)
                                chem.smiles  endpoint  value.units  test.value
1  COc1ccc(NC(=O)NCc2cn(CC(=O)N3CCCC3)c3ccc(OC)cc23)cc1  Activity            %        88.1
2  COc1ccc2c(c1)c(CNC(=O)Nc1ccc(F)cc1F)cn2CC(=O)N1CCCCC1  Activity            %        68.6
3  COc1ccc2c(c1)c(CNC(=O)Nc1ccc(C(F)(F)F)cc1)cn2CC(=O)N1CCCCC1  Activity            %         105

Exercise: Activity for O=C(NCc1cn(CC(=O)N2CCCC2)c2ccc(F)cc12)Nc1ccccc1Cl ?
Solution: 68.6

Exercise: Activity for COc1ccc2c(c1)c(CNC(=O)Nc1ccc(C(F)(F)F)cc1)cn2CC(=O)N1CCN(C)CC1 ?
Solution: 106

###

target: Discoidin domain-containing receptor 2 (Homo sapiens); assay: Inhibition of DDR2 (unknown origin) assessed as remaining activity at 1 uM using fluorescein-poly GAT as substrate in presence of ATP by TR-FRET assay relative to control
# Lookup of reported Activity keyed by entry

Example results:
> print(dat)
                                chem.smiles  endpoint  test.value
1  COc1ccc2c(c1)c(CNC(=O)Nc1ccc(C(F)(F)F)cc1)cn2CC(=O)N1CCCC1  Activity       99.5%
2  COc1ccc2c(c1)c(CNC(=O)Nc1ccc(F)cc1F)cn2CC(=O)N1CCN(C)CC1  Activity       66.5%
3  COc1ccc2c(c1)c(CNC(=O)Nc1ccc(F)cc1F)cn2CC(=O)N1CCOCC1  Activity       74.7%
4  CN1CCN(C(=O)Cn2cc(CNC(=O)Nc3ccc(F)cc3F)c3cc(F)ccc32)CC1  Activity       13.7%
5  COc1ccc2c(c1)c(CNC(=O)Nc1ccc(C)cc1)cn2CC(=O)N1CCCCC1  Activity       83.2%
6  COc1ccc(NC(=O)NCc2cn(CC(=O)N3CCCCC3)c3ccc(F)cc23)cc1  Activity       80.6%
7  COc1ccc2c(c1)c(CNC(=O)Nc1ccc(F)cc1F)cn2CC(=O)N1CCCCC1  Activity       74.8%
8  COc1ccc(NC(=O)NCc2cn(CC(=O)N3CCN(C)CC3)c3ccc(F)cc23)cc1  Activity       73.5%

Attention now turns to another entry.
Exercise: Identify the measured Activity of Cc1ccc(NC(=O)NCc2cn(CC(=O)N3CCCC3)c3ccc(F)cc23)cc1 for Discoidin domain-containing receptor 2 (Homo sapiens).
Solution: 95.4%

###

target: BDNF/NT-3 growth factors receptor (Homo sapiens) (UniProt Q16620); test: Inhibition of TRK-B (unknown origin) assessed as remaining activity at 1 uM using fluorescein-poly GAT as substrate in presence of ATP by TR-FRET assay relative to control
Sequence (Q16620 32-822 limits assumed): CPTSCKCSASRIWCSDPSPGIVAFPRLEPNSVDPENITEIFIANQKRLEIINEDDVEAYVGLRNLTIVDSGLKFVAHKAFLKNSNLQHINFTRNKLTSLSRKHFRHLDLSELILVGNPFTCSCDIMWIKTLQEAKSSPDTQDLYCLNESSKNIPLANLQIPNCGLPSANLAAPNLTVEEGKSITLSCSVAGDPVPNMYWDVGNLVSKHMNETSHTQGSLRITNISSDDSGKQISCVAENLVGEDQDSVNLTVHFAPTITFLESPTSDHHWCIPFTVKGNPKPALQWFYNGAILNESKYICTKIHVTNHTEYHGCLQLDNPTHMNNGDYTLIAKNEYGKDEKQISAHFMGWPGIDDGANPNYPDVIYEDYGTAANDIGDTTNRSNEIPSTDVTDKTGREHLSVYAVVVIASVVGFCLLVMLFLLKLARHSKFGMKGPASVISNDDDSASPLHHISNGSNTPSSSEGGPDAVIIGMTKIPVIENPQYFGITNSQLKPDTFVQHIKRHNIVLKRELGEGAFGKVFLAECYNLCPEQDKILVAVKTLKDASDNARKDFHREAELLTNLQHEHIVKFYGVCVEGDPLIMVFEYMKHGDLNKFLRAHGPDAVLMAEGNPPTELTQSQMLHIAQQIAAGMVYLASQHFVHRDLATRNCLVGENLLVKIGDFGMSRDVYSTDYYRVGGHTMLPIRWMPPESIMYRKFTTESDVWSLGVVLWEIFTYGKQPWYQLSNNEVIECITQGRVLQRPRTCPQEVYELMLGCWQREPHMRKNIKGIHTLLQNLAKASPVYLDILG
# Lookup of reported Activity keyed by entry
Please give a number only; it is taken to be in %.

Example results:
> print(dat)
                                chem.smiles  test.value
1  COc1ccc(NC(=O)NCc2cn(CC(=O)N3CCCC3)c3ccc(OC)cc23)cc1         102
2  COc1ccc2c(c1)c(CNC(=O)Nc1ccccc1Cl)cn2CC(=O)N1CCCCC1        87.4
3  Cc1ccc(NC(=O)NCc2cn(CC(=O)N3CCOCC3)c3ccc(F)cc23)cc1        83.8

Exercise: Identify the measured Activity of CN1CCN(C(=O)Cn2cc(CNC(=O)Nc3ccc(C(F)(F)F)cc3)c3cc(F)ccc32)CC1 for BDNF/NT-3 growth factors receptor (Homo sapiens) (UniProt Q16620).
Solution: 105

Exercise: Identify the measured Activity of O=C(NCc1cn(CC(=O)N2CCOCC2)c2ccc(F)cc12)Nc1ccc(C(F)(F)F)cc1 for BDNF/NT-3 growth factors receptor (Homo sapiens) (UniProt Q16620).
Solution: 72.2

Exercise: Identify the measured Activity of O=C(NCc1cn(CC(=O)N2CCOCC2)c2ccc(F)cc12)Nc1ccccc1Cl for BDNF/NT-3 growth factors receptor (Homo sapiens) (UniProt Q16620).
Solution: 83.8

Exercise: Identify the measured Activity of COc1ccc2c(c1)c(CNC(=O)Nc1ccc(C)cc1)cn2CC(=O)N1CCN(C)CC1 for BDNF/NT-3 growth factors receptor (Homo sapiens) (UniProt Q16620).
Solution: 108

Exercise: Identify the measured Activity of O=C(NCc1cn(CC(=O)N2CCOCC2)c2ccc(F)cc12)Nc1ccc(F)cc1F for BDNF/NT-3 growth factors receptor (Homo sapiens) (UniProt Q16620).
Solution: 72.8

Exercise: Identify the measured Activity of COc1ccc(NC(=O)NCc2cn(CC(=O)N3CCCC3)c3ccc(F)cc23)cc1 for BDNF/NT-3 growth factors receptor (Homo sapiens) (UniProt Q16620).
Solution: 83.8
